The reported numbers originate from patent US8765779B2.

# Assayed system: human 5-HT6 receptor (Homo sapiens)
# Construct: host or cells: CHO-K1 cells, stably transfected; membranes prepared in house
# Sequence (P50406 whole entry): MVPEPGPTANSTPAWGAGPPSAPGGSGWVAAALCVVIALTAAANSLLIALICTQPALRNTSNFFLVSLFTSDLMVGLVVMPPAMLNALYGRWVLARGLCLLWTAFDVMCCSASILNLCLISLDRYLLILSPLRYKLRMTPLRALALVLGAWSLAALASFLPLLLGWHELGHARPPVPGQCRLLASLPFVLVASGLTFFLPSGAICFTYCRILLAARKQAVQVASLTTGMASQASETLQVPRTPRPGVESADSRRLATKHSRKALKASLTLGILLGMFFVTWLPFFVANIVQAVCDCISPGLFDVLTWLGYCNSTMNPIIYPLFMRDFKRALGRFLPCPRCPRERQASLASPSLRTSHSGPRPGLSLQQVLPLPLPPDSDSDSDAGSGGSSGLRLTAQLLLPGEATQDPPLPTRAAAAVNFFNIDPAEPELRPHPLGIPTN
# Assay text: Human 5-HT6 Receptor Binding Assay ([3H]LSD displacement, scintillation beads)
# Details: membranes of CHO-K1 cells with recombinant human 5-HT6, 4 nM [3H]LSD; Table 1, class symbols; read-out: h5-HT6 (Ki)
# Experimental: Human 5-HT6 Receptor Binding Assay Membranes were prepared from CHO—K1 cells stably transfected with the human 5-HT6 receptor (Euroscreen; ES-316-C). […] The membranes were centrifuged at 40,000×g for 30 min at 4° C. and the pellets were resuspended in membrane buffer containing 250 mM sucrose, and protein concentration was determined using the Coomassie Plus kit (Pierce Biotechnology, Rockford, Ill.). […]
pKi: −log10 of the molar value.
Endpoint name: pKi

Briefly, pKi measured for `CC1(C)CNC2(CCOCC2)c2oc3cc(S(=O)(=O)c4cccc(F)c4)ccc3c21` : > 6.30

Briefly, pKi measured for O=S(=O)(c1ccc2c(c1)OC1CNCCC21)c1cccc(Cl)c1Cl (stereo not drawn) [Example 123] : > 6.30

Briefly, pKi measured for O=S(=O)(Oc1ccc2c(c1)C1CCNCC1O2)c1ccc(OC(F)(F)F)cc1 (stereo not drawn) : < 6.00

Briefly, pKi measured for CC1(CO)NCCc2c1oc1cc(S(=O)(=O)c3ccccc3)ccc21 (stereo not drawn) : > 6.30

Briefly, pKi measured for Cn1ccc2c(S(=O)(=O)c3ccc4c(c3)OC3CNCCC43)cccc21 (stereo not drawn) : > 6.30

Briefly, pKi measured for `O=S(=O)(c1cccc(F)c1)c1ccc2c3c(oc2c1)C1(CCC1)NCC3` : > 6.30

Briefly, pKi measured for O=S(=O)(Oc1ccc2c(c1)C1CCNCC1O2)c1cccc(Cl)c1Cl (stereo not drawn) : > 6.30

Briefly, pKi measured for [O-][S+](c1ccc2oc3c(c2c1)CCNC3)c1cccnc1F (stereo not drawn) : < 6.00

Briefly, pKi measured for O=S(=O)(Nc1cccc(F)c1)c1ccc2c(c1)C1CCNCC1O2 (stereo not drawn) : < 6.00

Briefly, pKi measured for CC12CCNCC1Oc1ccc(OS(=O)(=O)c3ccccc3Cl)cc12 (stereo not drawn) : < 6.00

Briefly, pKi measured for CN1CCC2c3ccc(OS(=O)(=O)c4ccc(Cl)cc4)cc3OC2C1 (stereo not drawn) : 6.00 to 6.30

Briefly, pKi measured for `CN(C)c1cccc(S(=O)(=O)c2ccc3c4c(oc3c2)CNCC4)c1` : > 6.30

Briefly, pKi measured for CC(C)C(=O)NCC1(C)NCCc2c1oc1cc(S(=O)(=O)c3cccc(F)c3)ccc21 (stereo not drawn) : > 6.30

Briefly, pKi measured for O=S(=O)(Cc1cccc(C(F)(F)F)c1)Oc1ccc2c(c1)C1CCNCC1O2 (stereo not drawn) : < 6.00

Briefly, pKi measured for CCCCC1NCCc2c1oc1cc(S(=O)(=O)c3cccc(F)c3)ccc21 (stereo not drawn) : > 6.30

Briefly, pKi measured for O=S(=O)(c1ccc2c(c1)OC1CNCCC21)c1cccc(Cl)c1Cl (stereo not drawn) [Example 156] : > 6.30

Briefly, pKi measured for O=S(=O)(Oc1ccc2c(c1)C1CCNCC1O2)c1cccc(C(F)(F)F)c1 (stereo not drawn) : > 6.30

Briefly, pKi measured for O=S(=O)(Oc1ccc2c(c1)C1CCNCC1O2)c1ccccc1 (stereo not drawn) : < 6.00
